Experiment: clinical
Settings: male, human, plasma, po, 750 mg, Plasma Cmax of metformin, mean (SD), metformin 750 mg single dose alone, fed, n=24

COMPOUND | UNITS | Cmax
CN(C)C(=N)N=C(N)N [Metformin] | ng/mL | 1380

====

Biological target: MATE1 (Homo sapiens)
Construct: containing full-length human transporter cDNA
Sequence (Q96FL8 whole entry): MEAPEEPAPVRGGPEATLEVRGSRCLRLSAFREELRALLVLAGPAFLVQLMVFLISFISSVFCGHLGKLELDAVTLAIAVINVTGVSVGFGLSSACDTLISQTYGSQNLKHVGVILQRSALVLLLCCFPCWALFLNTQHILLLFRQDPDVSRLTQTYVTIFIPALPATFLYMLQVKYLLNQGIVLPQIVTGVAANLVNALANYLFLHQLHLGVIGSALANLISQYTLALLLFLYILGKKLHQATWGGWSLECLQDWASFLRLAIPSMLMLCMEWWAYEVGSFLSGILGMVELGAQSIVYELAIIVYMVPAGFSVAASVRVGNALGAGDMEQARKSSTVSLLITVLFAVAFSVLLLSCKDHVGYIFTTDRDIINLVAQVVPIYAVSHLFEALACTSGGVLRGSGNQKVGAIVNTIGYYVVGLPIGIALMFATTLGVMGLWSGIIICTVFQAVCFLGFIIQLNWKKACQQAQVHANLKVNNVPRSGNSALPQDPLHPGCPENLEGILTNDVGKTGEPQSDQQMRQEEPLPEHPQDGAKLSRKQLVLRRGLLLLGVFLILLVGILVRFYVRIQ
Assay: Inhibition of [14C]metformin uptake into MATE1-expressing HEK293 cells
pIC50: −log10 of the molar value.

STRUCTURE | pIC50
NC(=O)c1cnc2[nH]ccc2c1N[C@@H]1[C@@H]2CC3C[C@H]1C[C@@](O)(C3)C2 | 5.00

====

Molecular target: MATE2-K (Homo sapiens, UniProt Q86VL8)
Construct: containing full-length human transporter cDNA
Sequence (Q86VL8 1-566 isoform Q86VL8-3): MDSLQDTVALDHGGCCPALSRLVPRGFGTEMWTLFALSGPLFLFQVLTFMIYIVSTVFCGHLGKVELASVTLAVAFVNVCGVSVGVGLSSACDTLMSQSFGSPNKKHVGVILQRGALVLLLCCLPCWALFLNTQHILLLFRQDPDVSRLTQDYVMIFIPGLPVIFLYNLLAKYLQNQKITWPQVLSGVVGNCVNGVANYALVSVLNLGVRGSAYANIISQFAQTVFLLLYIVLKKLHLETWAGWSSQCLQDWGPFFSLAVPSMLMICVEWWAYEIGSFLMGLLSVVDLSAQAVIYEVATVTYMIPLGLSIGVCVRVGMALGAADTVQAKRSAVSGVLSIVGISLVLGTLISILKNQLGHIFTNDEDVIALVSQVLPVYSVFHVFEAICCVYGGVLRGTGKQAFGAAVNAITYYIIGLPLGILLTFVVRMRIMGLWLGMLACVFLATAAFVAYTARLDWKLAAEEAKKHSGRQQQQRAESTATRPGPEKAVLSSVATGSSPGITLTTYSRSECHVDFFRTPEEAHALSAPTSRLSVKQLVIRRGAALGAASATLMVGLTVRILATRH
Assay: Inhibition of [14C]metformin uptake into MATE2-K-expressing HEK293 cells

STRUCTURE | MEASURED ON | IC50 (µM)
NC(=O)c1cnc2[nH]ccc2c1N[C@@H]1[C@@H]2CC3C[C@H]1C[C@@](O)(C3)C2 | MATE2-K (Homo sapiens, UniProt Q86VL8) | 20.8

====

Biological target: OCT2 (Homo sapiens, UniProt O15244)
Construct: containing full-length human transporter cDNA
Sequence (O15244 whole entry): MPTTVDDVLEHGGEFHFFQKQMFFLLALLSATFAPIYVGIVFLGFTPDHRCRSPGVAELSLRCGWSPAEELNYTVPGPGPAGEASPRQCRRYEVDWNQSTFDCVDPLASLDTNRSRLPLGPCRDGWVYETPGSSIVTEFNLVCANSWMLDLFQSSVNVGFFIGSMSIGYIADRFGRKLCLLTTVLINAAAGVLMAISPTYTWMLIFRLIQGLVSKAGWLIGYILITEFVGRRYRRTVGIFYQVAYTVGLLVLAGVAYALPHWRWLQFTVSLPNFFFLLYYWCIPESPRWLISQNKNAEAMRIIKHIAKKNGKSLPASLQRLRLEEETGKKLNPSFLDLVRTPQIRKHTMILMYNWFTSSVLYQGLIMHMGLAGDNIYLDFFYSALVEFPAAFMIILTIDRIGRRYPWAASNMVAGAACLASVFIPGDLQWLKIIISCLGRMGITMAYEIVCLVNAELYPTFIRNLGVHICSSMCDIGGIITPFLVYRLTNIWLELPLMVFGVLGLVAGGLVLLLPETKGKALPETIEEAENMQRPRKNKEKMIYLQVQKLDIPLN
Experiment: Inhibition of [14C]metformin uptake into OCT2-expressing HEK293 cells
pIC50: −log10 of the molar value.

STRUCTURE | MEASURED ON | pIC50
NC(=O)c1cnc2[nH]ccc2c1N[C@@H]1[C@@H]2CC3C[C@H]1C[C@@](O)(C3)C2 | OCT2 (Homo sapiens, UniProt O15244) | 4.15

====

Experiment: clinical
Details: male, human, plasma, po, 750 mg, Plasma Cmax of metformin, median, metformin 750 mg single dose alone, fed, n=24

STRUCTURE | UNITS | Cmax
CN(C)C(=N)N=C(N)N | ng/mL | 1380

====

Target: OCT1 (Homo sapiens)
Construct: containing full-length human transporter cDNA
Sequence (O15245 whole entry): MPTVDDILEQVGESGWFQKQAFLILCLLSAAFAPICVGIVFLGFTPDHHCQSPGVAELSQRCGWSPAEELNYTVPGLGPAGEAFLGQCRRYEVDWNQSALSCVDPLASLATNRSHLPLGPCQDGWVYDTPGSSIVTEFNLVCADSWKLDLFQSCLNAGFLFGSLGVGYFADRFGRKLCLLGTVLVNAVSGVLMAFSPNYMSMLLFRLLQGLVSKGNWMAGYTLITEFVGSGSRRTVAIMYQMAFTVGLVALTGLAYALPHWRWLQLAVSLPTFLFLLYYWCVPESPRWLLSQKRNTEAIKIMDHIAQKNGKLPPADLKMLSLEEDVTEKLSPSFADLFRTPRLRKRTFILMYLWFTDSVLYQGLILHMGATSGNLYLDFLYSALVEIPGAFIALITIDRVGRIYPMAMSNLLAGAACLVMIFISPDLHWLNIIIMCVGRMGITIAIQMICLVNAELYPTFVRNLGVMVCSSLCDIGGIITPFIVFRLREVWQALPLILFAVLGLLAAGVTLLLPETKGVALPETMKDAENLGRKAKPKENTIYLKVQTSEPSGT
Assay: Inhibition of [14C]metformin uptake into OCT1-expressing HEK293 cells

STRUCTURE | IC50, nM
NC(=O)c1cnc2[nH]ccc2c1N[C@@H]1[C@@H]2CC3C[C@H]1C[C@@](O)(C3)C2 | 247

Where these numbers come from: paper PMC7351850
